// provenance: PubChem BioAssay AID1508600

Assay: Components of the Cytosolic LPS Sensing Pathway: Gene Identification via Genome-wide siRNA Screen
Details: RAW264.7 macrophages, IL-1a HTRF, actives lie on both sides, screened at 100 nM (by protocol), cells primed 5 h with Pam3CSK4 first
In all, about 53,000 sequences went through this assay and about 3,700 (7%) were called active. The entries come from a sample that favours actives as a whole.
If the reported z-score equals or exceeds 0.5, assign condition met. If not, assign condition not met.

Look over these answered cases.
macromolecule_sequence="GCUUUAGGAAAUUUUGUGUTT against Ska3" label_value="condition not met"
macromolecule_sequence="GGAAAUAAAGUCCAUAGAATT against B3gnt3" label_value="condition not met"
macromolecule_sequence="GGAGUGCAGUCACUAUUUGTT against Il2rg" label_value="condition not met"
macromolecule_sequence="GGAAGAACUUGACCCAGAGTT against Pex16" label_value="condition met"
macromolecule_sequence="AAUGCUCAGAAAGAAUAACTT against Sprr2e" label_value="condition not met"
macromolecule_sequence="GGGAUAUUCAAAAUACUAGTT against Hells" label_value="condition met"
macromolecule_sequence="GGUAUUCACACUGAAGCCCTT against H2-DMa" label_value="condition not met"
macromolecule_sequence="CCUAGGUGUCGUACACAAATT against Galns" label_value="condition met"

*Q* Answer whether z-score of GCCGGUUGGAACAAAAGGCTT against E130018O15Rik is greater than or equal to 0.5.
*A* condition met

*Q* Item GGGCAUUGGGAUCCUCAAUTT against Olfr139 with z-score of 0.5 or above?
*A* condition not met

*Q* Could you verify whether the entry GCUUCUUAUGAAAAGAUGCTT against Epc2 shows z-score of no less than 0.5?
*A* condition not met

*Q* Quick check: does GGACCCUUUCUUUGAUAUGTT against Rpe have z-score greater than or equal to 0.5?
*A* condition met
